Source listed as ChEMBL document CHEMBL1201862.

IC50: recorded values
- systemTested: Bcl-2-related protein A1 (Mus musculus, UniProt Q07440);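 further: confirmatory dose–response counterscreen on Bfl-1, used to check hits from a UBC13 polyubiquitin inhibitor campaign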
- Sequence (Q07440 whole entry): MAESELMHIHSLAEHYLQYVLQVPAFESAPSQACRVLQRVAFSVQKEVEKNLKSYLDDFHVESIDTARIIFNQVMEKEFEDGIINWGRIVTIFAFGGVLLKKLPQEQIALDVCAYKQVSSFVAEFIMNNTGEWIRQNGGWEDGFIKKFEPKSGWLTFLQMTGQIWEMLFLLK
- Format: functional
Active and inactive are the calls of the source.

input: For the record CC(C)CC(C(=O)NC(C)(C)C)N(CC1CCCO1)C(=O)c1snc(C(N)=O)c1N (stereo not given) , what value of IC50 is listed for Bcl-2-related protein A1 (Mus musculus, UniProt Q07440)?
output: > 20 µM (inactive)

input: Hello, I am looking for reported IC50 with Bcl-2-related protein A1 (Mus musculus, UniProt Q07440) for Cc1cccc2c1c(/N=N/C(=N)S)c(O)n2C1OC(CO)C(O)C(O)C1O (stereo not given) . Could you help?
output: > 20 µM (inactive)

input: Any idea what IC50 came out for "Cc1cc(C(C)(C)CC(C)(C)C)ccc1OCCOCC[N+](C)(C)Cc1ccccc1" on Bcl-2-related protein A1 (Mus musculus, UniProt Q07440)?
output: 14.9 µM (active)

Others:
input: GET /values?readout=IC50&system=Bcl-2-related protein A1 (Mus musculus, UniProt Q07440)&item= "Cc1ccccc1CNC(=O)CCCC(=O)n1nc(C)c2ccccc21"
output: > 20 µM (inactive)

input: Record lookup: for Bcl-2-related protein A1 (Mus musculus, UniProt Q07440), what IC50 belongs to "O=C(Nc1ccc(C2=NCCN2)cc1)c1ccc(C(=O)Nc2ccc(C3=NCCN3)cc2)c(Cl)c1" ?
output: 9.71 µM (active)
